B1: FAM46D (parent)
chain: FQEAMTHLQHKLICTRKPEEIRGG

- Variants of: B1
- ASSAY_REMARKS: protein stability index of a GFP-peptide fusion (GPS, HEK-293T) (PSI 1-6); higher = more stable;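 also: lentivirally expressed fusions sorted by FACS into six bins by GFP to DsRed ratio, PSI derived from sequencing read proportions per bin multiplied by bin number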
- COND: c terminus: a fixed tail appended
READOUT_NAME: protein stability index

> print(dat)
                     sequence.chain             readout.name  result
 1  FQEAMTHLQHKLIITRKPEEIRGG [C14I]  protein stability index    2.21
 2  FQEAMTHLQHKLICTRKCEEIRGG [P18C]  protein stability index     1.3
 3  FQEAMTHLQHKLICTRGPEEIRGG [K17G]  protein stability index    2.77
 4   FHEAMTHLQHKLICTRKPEEIRGG [Q2H]  protein stability index    2.02
 5   PQEAMTHLQHKLICTRKPEEIRGG [F1P]  protein stability index    4.01
 6  FQEAMTHLQFKLICTRKPEEIRGG [H10F]  protein stability index    1.73
 7   TQEAMTHLQHKLICTRKPEEIRGG [F1T]  protein stability index    3.96
 8  FQEAMTHLQHKLDCTRKPEEIRGG [I13D]  protein stability index    2.57
 9   FQEAMEHLQHKLICTRKPEEIRGG [T6E]  protein stability index    3.38
10   FQEANTHLQHKLICTRKPEEIRGG [M5N]  protein stability index    3.53
11  FQEAMTHLQHKVICTRKPEEIRGG [L12V]  protein stability index    3.06
12  FQEAMTHLQHKLICTRKPTEIRGG [E19T]  protein stability index    2.28
13   FQEAMPHLQHKLICTRKPEEIRGG [T6P]  protein stability index    3.04
14   FQEATTHLQHKLICTRKPEEIRGG [M5T]  protein stability index    3.12
15   FQEAMTHKQHKLICTRKPEEIRGG [L8K]  protein stability index    2.29
16  FQEAMTHLQHKLICTRKPEEMRGG [I21M]  protein stability index     2.9
17   FYEAMTHLQHKLICTRKPEEIRGG [Q2Y]  protein stability index    2.19
18   FQEAMTCLQHKLICTRKPEEIRGG [H7C]  protein stability index    2.85
19  FQEAMTHLQHKLICTEKPEEIRGG [R16E]  protein stability index    2.57
20  FQEAMTHLQHKLICTRKPEEIHGG [R22H]  protein stability index    3.14
21  FQEAMTHLQHKGICTRKPEEIRGG [L12G]  protein stability index    2.72
22   FQKAMTHLQHKLICTRKPEEIRGG [E3K]  protein stability index    2.17
23  FQEAMTHLQHKLICTRKPHEIRGG [E19H]  protein stability index     2.3
24  FQEAMTHLQHKLICQRKPEEIRGG [T15Q]  protein stability index    3.31
25  FQEAMTHLQNKLICTRKPEEIRGG [H10N]  protein stability index    2.93
26  FQEAMTHLQHKTICTRKPEEIRGG [L12T]  protein stability index    3.99
27  FQEAMTHLQHKSICTRKPEEIRGG [L12S]  protein stability index     3.4
28  FQEAMTHLQHKLQCTRKPEEIRGG [I13Q]  protein stability index    3.58
29   FQEAMTWLQHKLICTRKPEEIRGG [H7W]  protein stability index    1.95
30  FQEAMTHLQHKLICTRKPEEIFGG [R22F]  protein stability index    2.34
31  FQEAMTHLQHKLICTRKPIEIRGG [E19I]  protein stability index    1.98
32   FQEAMTHLKHKLICTRKPEEIRGG [Q9K]  protein stability index    2.38
33   FQEAMHHLQHKLICTRKPEEIRGG [T6H]  protein stability index    2.22
34   FQEAGTHLQHKLICTRKPEEIRGG [M5G]  protein stability index    3.54
35  FQEAMTHLQHKLICTRKPEEIQGG [R22Q]  protein stability index    2.94
36   FQEACTHLQHKLICTRKPEEIRGG [M5C]  protein stability index    3.35
37  FQEAMTHLQHKLICTDKPEEIRGG [R16D]  protein stability index    2.68
38  FQEAMTHLQHKLILTRKPEEIRGG [C14L]  protein stability index    2.55
39  FQEAMTHLQHKLICTRKPEEIRGM [G24M]  protein stability index    1.85
40  FQEAMTHLQHKLICTRKPECIRGG [E20C]  protein stability index     2.3
41  FQEAMTHLQHTLICTRKPEEIRGG [K11T]  protein stability index    2.72
42  FQEAMTHLQHKLICTRKPEEIRGF [G24F]  protein stability index     2.3
43  FQEAMTHLQHKLICTPKPEEIRGG [R16P]  protein stability index    2.87
44  FQEAMTHLQHKLICTRKPEEIRGD [G24D]  protein stability index    2.96
45  FQEAMTHLQHKPICTRKPEEIRGG [L12P]  protein stability index     2.8
46   LQEAMTHLQHKLICTRKPEEIRGG [F1L]  protein stability index    2.93
47  FQEAMTHLQHWLICTRKPEEIRGG [K11W]  protein stability index    1.58
48   IQEAMTHLQHKLICTRKPEEIRGG [F1I]  protein stability index    3.29
49   FQENMTHLQHKLICTRKPEEIRGG [A4N]  protein stability index    3.36
50  FQEAMTHLQHKHICTRKPEEIRGG [L12H]  protein stability index    3.44
51  FQEAMTHLQHKLICTRKNEEIRGG [P18N]  protein stability index    3.04
52  FQEAMTHLQHKQICTRKPEEIRGG [L12Q]  protein stability index    3.87
53  FQEAMTHLQHKLICLRKPEEIRGG [T15L]  protein stability index    1.77
54   FQEAWTHLQHKLICTRKPEEIRGG [M5W]  protein stability index     2.1
55  FQEAMTHLQHKLICTRVPEEIRGG [K17V]  protein stability index    2.64
